Reported log10(Ki) for target or system human PSMA (Homo sapiens (Human)), by entry.
Answers are given as log10 of Ki in nM.

Below, 4 molecules whose answers are already recorded.
>  <Molecule>
O=C(O)C(Cn1ccnn1)CP(=O)(O)O (stereo not shown)

>  <Experimental target>
human PSMA (Homo sapiens (Human))

>  <log10(Ki)>
2.27

$$$$
>  <Molecule>
CN(C(=O)N[C@@H](CCC(=O)O)C(=O)O)[C@@H](CCCCNC(=O)CCCn1cc(CCCF)nn1)C(=O)O

>  <Experimental target>
human PSMA (Homo sapiens (Human))

>  <log10(Ki)>
2.52

$$$$
>  <Molecule>
O=C(O)CC[C@H](NC(=O)N[C@@H](Cc1ccc(NC(=O)c2cc(C(=O)O)cc(-n3cc(CCCF)nn3)c2)cc1)C(=O)O)C(=O)O

>  <Experimental target>
human PSMA (Homo sapiens (Human))

>  <log10(Ki)>
-0.70

$$$$
>  <Molecule>
O=C(O)CC[C@@H](C(=O)O)N1C(=O)CC(=O)N([C@@H](CCCCNC(=O)OCc2ccccc2)C(=O)O)C1=O

>  <Experimental target>
human PSMA (Homo sapiens (Human))

>  <log10(Ki)>
2.54

$$$$

### Prompt Suppose we examine the molecule `O=C(O)CC[C@H](NC(=O)N[C@@H](Cc1ccc(NC(=O)N2CCN(C(=O)OCc3ccccc3)CC2)cc1)C(=O)O)C(=O)O` ; what log10(Ki) value has been reported?
### Response -0.25

###

# Experimental target: human PSMA (Homo sapiens (Human), UniProt Q04609)
# Sequence (Q04609 whole entry): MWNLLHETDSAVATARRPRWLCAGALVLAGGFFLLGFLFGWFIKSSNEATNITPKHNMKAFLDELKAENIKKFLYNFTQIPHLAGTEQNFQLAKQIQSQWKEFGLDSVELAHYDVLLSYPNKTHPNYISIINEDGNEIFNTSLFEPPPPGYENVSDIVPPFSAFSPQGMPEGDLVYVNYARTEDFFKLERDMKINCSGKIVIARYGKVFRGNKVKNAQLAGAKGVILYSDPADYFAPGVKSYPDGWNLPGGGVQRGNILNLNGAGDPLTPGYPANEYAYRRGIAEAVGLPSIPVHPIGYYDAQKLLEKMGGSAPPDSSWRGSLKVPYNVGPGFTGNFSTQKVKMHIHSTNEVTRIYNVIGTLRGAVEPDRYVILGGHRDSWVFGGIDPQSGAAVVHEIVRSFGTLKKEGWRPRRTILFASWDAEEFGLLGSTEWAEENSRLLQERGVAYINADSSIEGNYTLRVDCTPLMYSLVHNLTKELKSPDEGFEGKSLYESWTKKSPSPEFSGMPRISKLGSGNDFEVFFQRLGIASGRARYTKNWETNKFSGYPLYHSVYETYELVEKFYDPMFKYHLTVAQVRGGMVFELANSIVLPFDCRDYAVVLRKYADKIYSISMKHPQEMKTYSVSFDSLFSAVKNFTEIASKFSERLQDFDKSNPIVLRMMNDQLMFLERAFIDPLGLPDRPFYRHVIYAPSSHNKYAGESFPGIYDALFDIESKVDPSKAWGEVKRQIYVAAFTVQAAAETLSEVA
# Assay notes: Enzymatic assay for in vitro evaluation of PSMA inhibitors (fluorescent assay of PSMA activity, NAAG substrate, OPA detection of glutamate)
# Type: biochemical
# Assay conditions: 10 μM
Reported property: PSMA Blkg % (10 μM) (%)
// units = %; emit number, no label

### Prompt Suppose we examine the compound `CN(C(=O)N[C@@H](CCC(=O)O)C(=O)O)[C@@H](Cc1ccc(NC(=O)CCCn2cc(CCCF)nn2)cc1)C(=O)O` ; what PSMA Blkg % (10 μM) value has been reported?
### Response 78

### Prompt Suppose we examine the compound `O=C(O)CC[C@H](NC(=O)N[C@@H](Cc1ccc(NC(=O)Cn2cc(CCCF)nn2)cc1)C(=O)O)C(=O)O` ; what PSMA Blkg % (10 μM) value has been reported?
### Response 96

### Prompt Suppose we examine the compound `O=C(O)CC[C@H](NC(=O)C[C@@H](NC(=O)c1ccc(F)nc1)C(=O)O)C(=O)O` ; what PSMA Blkg % (10 μM) value has been reported?
### Response 33

### Prompt Suppose we examine the compound CC(=O)N(CCF)CC(CP(=O)(O)O)C(=O)O.O=C(O)C(F)(F)F (stereo not shown) ; what PSMA Blkg % (10 μM) value has been reported?
### Response 27

### Prompt Suppose we examine the compound `O=C(O)CC[C@H](NC(=O)N[C@@H](CCCCNC(=S)Nc1ccc(-n2cc(CCCF)nn2)cc1)C(=O)O)C(=O)O` ; what PSMA Blkg % (10 μM) value has been reported?
### Response 95

### Prompt Suppose we examine the compound `O=C(O)CC[C@H](NC(=O)N[C@@H](Cc1ccc(NC(=O)Nc2ccc(-n3cc(CCCF)nn3)cc2)cc1)C(=O)O)C(=O)O` ; what PSMA Blkg % (10 μM) value has been reported?
### Response 99

### Prompt Suppose we examine the compound O=C(O)CC[C@H](NC(=O)NC(Cc1ccc(OCCn2cc(CCCF)nn2)cc1)C(=O)O)C(=O)O (stereo partly shown) ; what PSMA Blkg % (10 μM) value has been reported?
### Response 97

### Prompt Suppose we examine the compound `O=C(O)CC[C@H](NC(=O)C[C@@H](NC(=O)NCCc1ccccc1)C(=O)O)C(=O)O` ; what PSMA Blkg % (10 μM) value has been reported?
### Response 34

### Prompt Suppose we examine the compound O=C(O)CCC(CP(=O)(O)OCCOCCOCCOCCn1cc(CCCF)nn1)C(=O)O (stereo not shown) ; what PSMA Blkg % (10 μM) value has been reported?
### Response 0

### Prompt Suppose we examine the compound `O=C(O)CC[C@H](NC(=O)C[C@@H](NC(=O)CCCc1ccc(F)cc1)C(=O)O)C(=O)O` ; what PSMA Blkg % (10 μM) value has been reported?
### Response 43

Origin of values: patent US10894807B2
